Protocol summary: qHTS drug screen for cell cycle checkpoint inhibitors in PARPi-resistant BRCA-mutant ovarian cancer cell lines. (AID 1963452)
Run conditions: PEO1/OlaR viability, CellTiter-Glo luminescence, 96 h; measured here: PEO4 Z-AUC; stronger effect = lower value
With a cut-off of -1, any Z-AUC strictly below it is called Met; any Z-AUC meeting it or above is called Not met.

Examples with answers:
Cc1cnc(Nc2ccc(F)cc2Cl)nc1-c1c[nH]c(C(=O)N[C@H](CO)c2cccc(Cl)c2)c1 :: Not met
C[C@@H]1COC(Nc2ccc3ncnc(Nc4ccc(OCc5nccs5)c(Cl)c4)c3c2)=N1 :: Met
Cc1cc(Nc2cc(N3CCN(C)CC3)nc(Sc3ccc(NC(=O)C4CC4)cc3)n2)n[nH]1 :: Not met
COc1cc2c(Oc3ccc(NC(=O)C4(C(=O)Nc5ccc(F)cc5)CC4)cc3F)ccnc2cc1OCCCN1CCOCC1 :: Not met
COc1cc2c(Oc3ccc(-c4cnc(Nc5ccc(F)cc5)n(C)c4=O)cc3F)ccnc2cc1OCCCN1CCOCC1 :: Not met

Field: below-cutoff. Rule: recorded Z-AUC strictly less than -1. Subject: `Cc1[nH]nc2ccc(-c3cncc(OC[C@@H](N)Cc4ccccc4)c3)cc12`
Met

Field: below-cutoff. Rule: recorded Z-AUC strictly less than -1. Subject: CC[C@@H]1C(=O)N(C)c2cnc(Nc3ccc(C(=O)NC4CCC(N5CCN(CC6CC6)CC5)CC4)cc3OC)nc2N1C(C)C (stereo partly drawn)
Met

Field: below-cutoff. Rule: recorded Z-AUC strictly less than -1. Subject: `CNC(=O)CN1CCC(Oc2cc3c(Nc4cccc(Cl)c4F)ncnc3cc2OC)CC1`
Not met

---

Protocol summary: Primary qHTS for small molecule stabilizers of the endoplasmic reticulum resident proteome: Secreted ER Calcium Modulated Protein (SERCaMP) assay (AID 1508630)
Run conditions: SH-SY5Y GLuc-SERCaMP (Gaussia luciferase released on ER calcium loss) secretion, thapsigargin, luminescence; series mostly up to 38.4 µM
Records with an inconclusive call do not appear. Activity calls are given as the source filed them. The call rests on the fitted dose curve; in most records, active means well fitted inhibition curve with a large enough effect; inconclusive means small, poorly fitted or top-dose-only effect; inactive means no such curve, though single readings can be large or run the other way.
Readout label: outcome

CN[C@H]1CCc2cc(OC)c(OC)c(OC)c2-c2ccc(OC)c(=O)cc21 :: inactive
CC[C@H]1CN2CCc3cc(OC)c(OC)cc3[C@H]2C[C@@H]1C[C@@H]1NCCc2cc(OC)c(OC)cc21 :: inactive
C[C@@H]1COC(Nc2ccc3ncnc(Nc4ccc(OCc5nccs5)c(Cl)c4)c3c2)=N1 :: inactive
COC(=O)Nc1ccc(-c2nc(N3CCOCC3)c3cnn(C4CCN(Cc5cccnc5)CC4)c3n2)cc1 :: inactive

Which outcome reading was recorded for the compound `Cc1cc(Nc2cc(N3CCN(C)CC3)nc(C=Cc3ccccc3)n2)n[nH]1` ?
inactive

---

Measured target: Cytochrome P450 2C9 (Homo sapiens) (UniProt P11712)
Sequence (P11712 whole entry, looked up): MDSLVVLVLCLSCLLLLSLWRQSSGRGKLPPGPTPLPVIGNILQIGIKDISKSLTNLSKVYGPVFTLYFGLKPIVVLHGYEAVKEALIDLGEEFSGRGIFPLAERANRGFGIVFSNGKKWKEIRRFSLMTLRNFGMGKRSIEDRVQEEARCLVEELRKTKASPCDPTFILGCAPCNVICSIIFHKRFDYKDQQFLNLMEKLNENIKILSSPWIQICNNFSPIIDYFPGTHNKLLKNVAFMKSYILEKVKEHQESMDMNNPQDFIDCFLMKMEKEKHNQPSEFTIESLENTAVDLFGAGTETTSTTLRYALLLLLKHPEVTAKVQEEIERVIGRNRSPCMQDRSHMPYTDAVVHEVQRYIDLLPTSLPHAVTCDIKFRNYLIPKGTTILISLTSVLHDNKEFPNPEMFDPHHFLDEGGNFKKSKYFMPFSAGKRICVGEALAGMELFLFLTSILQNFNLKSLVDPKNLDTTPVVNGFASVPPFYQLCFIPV
Protocol summary: Cytochrome P450 family 2 subfamily C member 9 (CYP2C9) small molecule antagonists: luciferase biochemical (cell-free) qHTS assay (AID 1645842); also: nearly all actives have a fitted effect of over 55% in size
Run conditions: P450-Glo CYP2C9 enzyme assay, luciferin luminescence; series mostly up to 57.4 µM
Records with an inconclusive call do not appear. The source made the active and inactive calls. Calls come from the whole dose curve; as a rule, active = well fitted inhibition curve with a large enough effect in the repeat runs; inconclusive = weak or mixed curves; inactive = no such curve, though single readings can be large or run the other way.
Pick one and only one: active, inactive

Examples with answers:
Cc1c(CN2CCN(S(C)(=O)=O)CC2)sc2c(N3CCOCC3)nc(-c3cnc(N)nc3)nc12 :: active
Cn1cc(-c2ccncc2)c(-c2ccc(OCc3ccc4ccccc4n3)cc2)n1 :: active
CCS(=O)(=O)c1cccc(-c2cc(C(=O)NC3CCN(C)CC3)c(C)c3[nH]c4ncc(C)cc4c23)c1 :: active

Which outcome was assigned to `O=C(Nc1ncc(-c2cc(C(F)F)nn2-c2c(Cl)cccc2Cl)s1)C1CC1` in this test?
active

Which outcome was assigned to `COc1ccc2c(OCc3nnc4ccc(-c5ccccc5)nn34)ccnc2c1` in this test?
active

Which outcome was assigned to `CNC(=O)c1cc(Oc2ccc(NC(=O)Nc3cc(C(C)(C)C)nn3-c3ccc4ncccc4c3)c(F)c2)ccn1` in this test?
active

Which outcome was assigned to `Nc1ccc(S(=O)(=O)Nc2ncccn2)cc1` in this test?
inactive

Which outcome was assigned to `COc1cc2c(Oc3ccc(NC(=O)C4(C(=O)Nc5ccc(F)cc5)CC4)cc3F)ccnc2cc1OCCCN1CCOCC1` in this test?
active

Which outcome was assigned to `CCCNC(=O)Nc1ccc(Oc2ncnc3cc(OC)c(OC)cc23)cc1Cl` in this test?
inactive
